# experimental_target: T1, GLP-1R in the INS1e assay (UniProt P32301 22-463, limits assumed)
# T1 sequence (looked up): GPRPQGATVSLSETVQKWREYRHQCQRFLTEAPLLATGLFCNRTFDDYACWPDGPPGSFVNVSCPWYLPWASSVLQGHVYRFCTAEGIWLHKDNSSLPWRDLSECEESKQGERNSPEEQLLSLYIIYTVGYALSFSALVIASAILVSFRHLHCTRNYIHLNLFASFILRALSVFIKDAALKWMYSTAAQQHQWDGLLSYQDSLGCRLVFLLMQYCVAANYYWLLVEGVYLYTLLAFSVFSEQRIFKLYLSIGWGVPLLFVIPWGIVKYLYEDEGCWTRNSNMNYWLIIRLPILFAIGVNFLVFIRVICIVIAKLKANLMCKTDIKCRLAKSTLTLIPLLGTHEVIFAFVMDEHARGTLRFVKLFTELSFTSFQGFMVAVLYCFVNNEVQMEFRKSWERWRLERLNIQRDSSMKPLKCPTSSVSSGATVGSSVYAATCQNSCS
# method_notes: cell-based or functional assay
Starred links: 1 amine or outer side, 2 acyl side, 3 side chain; linkers in the order of their positions; H or OH if unused. Non-standard residues stand in square brackets, D forms with d. Groups on a side chain read outwards from the residue. Primed or numbered codes have the meaning given here. No end group written: not given here. *: point of attachment. γGlu = O=C(O)[C@H](CCC(=O)[*:2])N[*:1]; Palmitoyl = CCCCCCCCCCCCCCCC(=O)*; αMeF = C[C@](N)(Cc1ccccc1)C(=O)O; αMeK = C[C@](N)(CCCCN)C(=O)O; Lauroyl = CCCCCCCCCCCC(=O)*; αMeS = C[C@](N)(CO)C(=O)O; Nle = CCCC[C@H](N)C(=O)O; PEG2′ = not defined here; Aib = CC(C)(N)C(=O)O
Reported INS1e assay EC50 (cAMP) n1 values for the following binders.
# value in nM; strip the unit string

Here are 6 binders together with their reported answers.
1) H[Aib]EGS[αMeF]TSDVSK([PEG2′-PEG2′-γGlu-Lauroyl])FLEGEAAEEFIK([PEG2′-PEG2′-γGlu-Lauroyl])FVVEGG-NH2 [SEQ ID NO: 241] ... 5.84
2) H[Aib]EGS[αMeF]TSDV[αMeS]SYK([PEG2′-PEG2′-γGlu-Lauroyl])EGEAA[αMeK]EFIK([PEG2′-PEG2′-γGlu-Lauroyl])WVVEGG-NH2 [SEQ ID NO: 268] ... 1.09
3) H[Aib]EGS[αMeF]TSDV[αMeS]SK([PEG2′-PEG2′-γGlu-Lauroyl])LEGEAA[αMeK]E[Nle]IAK([PEG2′-PEG2′-γGlu-Lauroyl])VVEGG-NH2 [SEQ ID NO: 407] ... 0.113
4) H[Aib]EGS[αMeF]TSDV[αMeS]SYK([PEG2′-PEG2′-γGlu-Lauroyl])EGEAA[αMeK]EFIAK([PEG2′-PEG2′-γGlu-Lauroyl])VVEGG-NH2 [SEQ ID NO: 269] ... 0.243
5) H[Aib]EGS[αMeF]TSDV[αMeS]SK([PEG2′-PEG2′-γGlu-Lauroyl])LEGEAA[αMeK]EFIAWK([PEG2′-PEG2′-γGlu-Lauroyl])VEGG-NH2 [SEQ ID NO: 264] ... 0.963
6) H[Aib]EGS[αMeF]TSDV[αMeS]SK([PEG2′-PEG2′-γGlu-Lauroyl])LEGEAA[αMeK]EFIAK([PEG2′-PEG2′-γGlu-Lauroyl])VVEGG-NH2 [SEQ ID NO: 263] ... 0.12

Request: What value of measured INS1e assay EC50 (cAMP) n1 is listed for H[Aib]EGS[αMeF]TSDVSK([PEG2′-PEG2′-γGlu-Lauroyl])YLEGEAAEEFIK([PEG2′-PEG2′-γGlu-Lauroyl])WVVEGG-NH2 [SEQ ID NO: 240] ?
Result: 6.86

Request: Quick one: INS1e assay EC50 (cAMP) n1 for H[Aib]EGS[αMeF]TSDVSK([PEG2′-PEG2′-γGlu-Palmitoyl])YLEGEAA[αMeK]EFIK([PEG2′-PEG2′-γGlu-Palmitoyl])WVVEGG-NH2 [SEQ ID NO: 251] ?
Result: 6.47
